Tested on: human red blood cells (hRBC)
Format: cell-based
Conditions: red cells of human, 1 h
Where a SMILES comes first, the peptide text is derived from it. [ ]: non-standard residue; d: D form.
The threshold is 0.6%. Values of Hemolysis at 100 μg/ml (percentage hemolysis) beneath it are tagged Met; values meeting or exceeding it are tagged Not met.

These solved cases illustrate the format of a correct answer.
{"MOLECULE": "CC(C)C[C@@H]1NC(=O)[C@H](Cc2c[nH]c3ccccc23)NC(=O)[C@H](CCCNC(=N)N)NC(=O)[C@@H]2CCCN2C(=O)[C@H]2CCCN2C(=O)[C@H](CCCNC(=N)N)NC(=O)[C@H](CC(C)C)NC(=O)[C@H](Cc2ccc(O)cc2)NC(=O)[C@H](CCCCN)NC(=O)[C@H](Cc2c[nH]c3ccccc23)NC(=O)[C@H](CCCNC(=N)N)NC(=O)[C@H](CCCNC(=N)N)NC(=O)[C@H](CCCCN)NC(=O)[C@H](CCCCN)NC1=O [compound 8] (cyclo(RWLKKRRWKYLR[dP]P))", "CLASS NAME": "Met"}
{"MOLECULE": "CC(C)C[C@@H]1NC(=O)[C@H](Cc2c[nH]c3ccccc23)NC(=O)[C@H](CCCNC(=N)N)NC(=O)[C@@H]2CCCN2C(=O)[C@H]2CCCN2C(=O)[C@H](CCCNC(=N)N)NC(=O)[C@H](Cc2ccc(O)cc2)NC(=O)[C@H]([C@@H](C)O)NC(=O)[C@H](CCCCN)NC(=O)[C@H](Cc2c[nH]c3ccccc23)NC(=O)[C@H](CCCNC(=N)N)NC(=O)[C@H](CCCNC(=N)N)NC(=O)[C@H](CCCCN)NC(=O)[C@H](CCCCN)NC1=O [compound 3] (cyclo(RWLKKRRWKTYR[dP]P))", "CLASS NAME": "Not met"}
{"MOLECULE": "CC(C)C[C@@H]1NC(=O)[C@H](Cc2c[nH]c3ccccc23)NC(=O)[C@H](CCCNC(=N)N)NC(=O)[C@@H]2CCCN2C(=O)[C@H]2CCCN2C(=O)[C@H](CCCNC(=N)N)NC(=O)[C@H](Cc2ccc(O)cc2)NC(=O)[C@H](Cc2ccc(O)cc2)NC(=O)[C@H](CCCCN)NC(=O)[C@H](Cc2c[nH]c3ccccc23)NC(=O)[C@H](CCCNC(=N)N)NC(=O)[C@H](CCCNC(=N)N)NC(=O)[C@H](CCCCN)NC(=O)[C@H](C(C)C)NC1=O [compound 5] (cyclo(RWLVKRRWKYYR[dP]P))", "CLASS NAME": "Met"}
{"MOLECULE": "CC(C)C[C@@H]1NC(=O)[C@H](Cc2c[nH]c3ccccc23)NC(=O)[C@H](CCCNC(=N)N)NC(=O)[C@@H]2CCCN2C(=O)[C@H]2CCCN2C(=O)[C@H](CCCNC(=N)N)NC(=O)[C@H](C(C)C)NC(=O)[C@H](Cc2ccc(O)cc2)NC(=O)[C@H](CCCCN)NC(=O)[C@H](Cc2c[nH]c3ccccc23)NC(=O)[C@H](CCCNC(=N)N)NC(=O)[C@H](CCCNC(=N)N)NC(=O)[C@H](CCCCN)NC(=O)[C@H](CCCCN)NC1=O [Ex. 2] (cyclo(RWLKKRRWKYVR[dP]P))", "CLASS NAME": "Met"}

Now examine the next entry.
In: In the record for CC(C)C[C@@H]1NC(=O)[C@H](Cc2c[nH]c3ccccc23)NC(=O)[C@H](CCCNC(=N)N)NC(=O)[C@@H]2CCCN2C(=O)[C@H]2CCCN2C(=O)[C@H](CCCNC(=N)N)NC(=O)[C@H](CCC(N)=O)NC(=O)[C@H](Cc2ccc(O)cc2)NC(=O)[C@H](CCCCN)NC(=O)[C@H](Cc2c[nH]c3ccccc23)NC(=O)[C@H](CCCNC(=N)N)NC(=O)[C@H](CCCNC(=N)N)NC(=O)[C@H](CCCCN)NC(=O)[C@H](CCCCN)NC1=O [compound 7] (cyclo(RWLKKRRWKYQR[dP]P)) , is Hemolysis at 100 μg/ml (percentage hemolysis) less than 0.6%?
Out: Not met
